# System: THP-1 (vitamin D3 differentiated)
# protocol_summary: cAMP EC50 (HTRF); higher = lower potency
# test_context: 20 min
Quick rule for you: cAMP EC50 at 0.2 µM or higher means 1 (yes), lower means 0 (no).

Some solved entries appear below for comparison.
>>> group_label("Cn1cc(C(F)(F)F)nc1-c1ccc(OCC(O)CNCCOc2ccc(O)c(C(N)=O)c2)cc1 (stereo unspecified)")
"1 (yes)"
>>> group_label("CC(NCCc1ccc(O)cc1)C(O)c1ccc(O)cc1 (stereo unspecified) [Ritodrine]")
"1 (yes)"
>>> group_label("CNCCc1cnc[nH]1 [N-alpha-methylhistamine]")
"0 (no)"
>>> group_label("CC(CCc1ccc(O)cc1)NCCc1ccc(O)c(O)c1 (stereo unspecified) [Dobutamine]")
"0 (no)"
>>> group_label("Oc1ccc(CCNCCCCCCNCCc2ccccc2)cc1O [Dopexamine]")
"1 (yes)"

Could you now look at the following compound, please?
IN: Quick check: does CC(C)(C)NCC(O)c1ccccc1Cl (stereo unspecified) [Tulobuterol] have cAMP EC50 greater than or equal to 0.2 µM?
OUT: 0 (no)

---

# System: THP-1 (vitamin D3 differentiated)
# protocol_summary: cAMP EC50 (HTRF); higher = lower potency
# test_context: 20 min
Quick rule for you: cAMP EC50 at 10 nM or higher means true, lower means false.

>>> group_label("OCc1cc([C@@H](O)CNCCCCCCOCCOCc2c(Cl)cccc2Cl)ccc1O")
"false"
>>> group_label("CC(Cc1ccc(OCC(=O)O)cc1)NCC(O)c1cccc(Cl)c1 (stereo not given)")
"true"
>>> group_label("O=c1ccc2c([C@@H](O)CNCCCCCCOCC(F)(F)c3ccccc3)ccc(O)c2[nH]1")
"false"
>>> group_label("CC(Cc1ccc(O)cc1)NCC(O)c1cc(O)cc(O)c1 (stereo not given)")
"false"
>>> group_label("CC(C)(C)NCC(O)c1ccc(O)c(CO)c1 (stereo not given)")
"true"

IN: Textbook exercise: given the entry NC[C@H](O)c1ccc(O)c(O)c1 [Norepinephrine] , state whether its cAMP EC50 is greater than or equal to 10 nM.
OUT: false

IN: Is cAMP EC50 at least 10 nM? Consider CC(C)(Cc1ccccc1)NCC(O)c1ccc(O)c(NS(C)(=O)=O)c1 (stereo not given)
OUT: false

IN: Decide: cAMP EC50 of COc1ccc(CC(C)NCC(O)c2ccc(O)c(NC=O)c2)cc1 (stereo not given) >= 10 nM?
OUT: false

IN: Confirm if cAMP EC50 reported for the compound CC(C)(C)NCC(O)c1cc(O)cc(O)c1 (stereo not given) is 10 nM or above.
OUT: true

IN: Textbook exercise: given the entry CC(C)NCC(O)c1cc(O)cc(O)c1 (stereo not given) , state whether its cAMP EC50 is greater than or equal to 10 nM.
OUT: false
